Biological target: T1, Histidine-tagged human CD3e protein (human, UniProt P07766 23-126)
T1 construct: also called hCD3e-His; not shown: His tag
T1 sequence (P07766 23-126 limits assumed): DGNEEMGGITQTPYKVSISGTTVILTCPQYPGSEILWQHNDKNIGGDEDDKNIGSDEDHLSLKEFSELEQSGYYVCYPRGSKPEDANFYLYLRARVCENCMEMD
Assay: SPR (Biacore), human CD3e
measurement.label: koff (s⁻¹)
Reply numerically in s⁻¹, unit not repeated.

IN: Which koff value belongs to 10A4-H4K2-IgG1-LALA (antibody, V domains shown, Humanized; human IgG1 with LALA mutations; also called H4K2 (humanized 10A4)) VH: QVQLQQSGAEVKKPGASVRISCKASGYTFTSYYIHWVRQRPGQGLEFIGWIYPGNVNAKYNEKFKGRATLTTDKSASTAYMELSSLRSEDTAVYFCAIKGGNYDWGQGTLVTVSS VL: DVVMTQSPLSLPVTLGQPASISCQSSQSLLDSDGKTYLNWLQQRPGQSPRRLIYLVSKLGSGVPDRFSGSGSGTDFTLKISRVEAEDVGVYYCWQGTHFPRTFGGGTKLEIK ?
OUT: 0.000103

IN: Would you kindly repeat that for 10A4-H1K1-IgG1-LALA (antibody, V domains shown, Humanized; human IgG1 with LALA mutations; also called H1K1 (humanized 10A4)) VH: QVQLVQSGAEVKKPGASVKVSCKASGYTFTSYYIHWVRQAPGQRLEFIGWIYPGNVNAKYNEKFKGRVTITTDKSASTAYMELSSLRSEDTAVYYCAIKGGNYDWGQGTLVTVSS VL: DVVMTQSPLSLPVTLGQPASISCQSSQSLLDSDGKTYLNWLQQRPGQSPRRLIYLVSKLGSGVPDRFSGSGSGTDFTLKISRVEAEDVGVYYCWQGTHFPRTFGGGTKVEIK ?
OUT: 0.000105

IN: And 10A4-H2K2-IgG1-LALA (antibody, V domains shown, Humanized; human IgG1 with LALA mutations; also called H2K2 (humanized 10A4)) VH: QVQLVQSGAEVKKPGASVKISCKASGYTFTSYYIHWVRQAPGQRLEFIGWIYPGNVNAKYNEKFKGRATITTDKSASTAYMELSSLRSEDTAVYYCAIKGGNYDWGQGTLVTVSS VL: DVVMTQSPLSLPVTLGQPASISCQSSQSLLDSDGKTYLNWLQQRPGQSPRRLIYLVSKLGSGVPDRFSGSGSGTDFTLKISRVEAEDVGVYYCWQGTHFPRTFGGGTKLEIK ?
OUT: 0.000134

IN: Okay, and 10A4-H3K2-IgG1-LALA (antibody, V domains shown, Humanized; human IgG1 with LALA mutations; also called H3K2 (humanized 10A4)) VH: QVQLVQSGAEVKKPGASVKISCKASGYTFTSYYIHWVRQRPGQRLEFIGWIYPGNVNAKYNEKFKGRATLTTDKSASTAYMELSSLRSEDTAVYFCAIKGGNYDWGQGTLVTVSS VL: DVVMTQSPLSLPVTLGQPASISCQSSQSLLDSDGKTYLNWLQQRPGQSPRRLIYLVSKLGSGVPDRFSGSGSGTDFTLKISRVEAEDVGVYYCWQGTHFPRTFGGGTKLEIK ?
OUT: 0.000126

IN: Moving on to the next binder: 10A4-H1K2-IgG1-LALA (antibody, V domains shown, Humanized; human IgG1 with LALA mutations; also called H1K2 (humanized 10A4)) VH: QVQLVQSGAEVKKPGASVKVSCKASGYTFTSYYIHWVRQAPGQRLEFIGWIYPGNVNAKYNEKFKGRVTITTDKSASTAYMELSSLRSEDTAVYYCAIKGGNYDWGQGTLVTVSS VL: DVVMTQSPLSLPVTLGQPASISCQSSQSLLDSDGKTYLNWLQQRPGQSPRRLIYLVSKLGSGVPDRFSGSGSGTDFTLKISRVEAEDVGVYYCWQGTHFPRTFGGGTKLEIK
OUT: 0.000127
